Reference for the values: patent US7074789B2

System Tested: c-Met (Homo sapiens, UniProt P08581)
Construct: Kinases are expressed as either kinase domains or full length constructs; made in house
Sequence (P08581 25-1390): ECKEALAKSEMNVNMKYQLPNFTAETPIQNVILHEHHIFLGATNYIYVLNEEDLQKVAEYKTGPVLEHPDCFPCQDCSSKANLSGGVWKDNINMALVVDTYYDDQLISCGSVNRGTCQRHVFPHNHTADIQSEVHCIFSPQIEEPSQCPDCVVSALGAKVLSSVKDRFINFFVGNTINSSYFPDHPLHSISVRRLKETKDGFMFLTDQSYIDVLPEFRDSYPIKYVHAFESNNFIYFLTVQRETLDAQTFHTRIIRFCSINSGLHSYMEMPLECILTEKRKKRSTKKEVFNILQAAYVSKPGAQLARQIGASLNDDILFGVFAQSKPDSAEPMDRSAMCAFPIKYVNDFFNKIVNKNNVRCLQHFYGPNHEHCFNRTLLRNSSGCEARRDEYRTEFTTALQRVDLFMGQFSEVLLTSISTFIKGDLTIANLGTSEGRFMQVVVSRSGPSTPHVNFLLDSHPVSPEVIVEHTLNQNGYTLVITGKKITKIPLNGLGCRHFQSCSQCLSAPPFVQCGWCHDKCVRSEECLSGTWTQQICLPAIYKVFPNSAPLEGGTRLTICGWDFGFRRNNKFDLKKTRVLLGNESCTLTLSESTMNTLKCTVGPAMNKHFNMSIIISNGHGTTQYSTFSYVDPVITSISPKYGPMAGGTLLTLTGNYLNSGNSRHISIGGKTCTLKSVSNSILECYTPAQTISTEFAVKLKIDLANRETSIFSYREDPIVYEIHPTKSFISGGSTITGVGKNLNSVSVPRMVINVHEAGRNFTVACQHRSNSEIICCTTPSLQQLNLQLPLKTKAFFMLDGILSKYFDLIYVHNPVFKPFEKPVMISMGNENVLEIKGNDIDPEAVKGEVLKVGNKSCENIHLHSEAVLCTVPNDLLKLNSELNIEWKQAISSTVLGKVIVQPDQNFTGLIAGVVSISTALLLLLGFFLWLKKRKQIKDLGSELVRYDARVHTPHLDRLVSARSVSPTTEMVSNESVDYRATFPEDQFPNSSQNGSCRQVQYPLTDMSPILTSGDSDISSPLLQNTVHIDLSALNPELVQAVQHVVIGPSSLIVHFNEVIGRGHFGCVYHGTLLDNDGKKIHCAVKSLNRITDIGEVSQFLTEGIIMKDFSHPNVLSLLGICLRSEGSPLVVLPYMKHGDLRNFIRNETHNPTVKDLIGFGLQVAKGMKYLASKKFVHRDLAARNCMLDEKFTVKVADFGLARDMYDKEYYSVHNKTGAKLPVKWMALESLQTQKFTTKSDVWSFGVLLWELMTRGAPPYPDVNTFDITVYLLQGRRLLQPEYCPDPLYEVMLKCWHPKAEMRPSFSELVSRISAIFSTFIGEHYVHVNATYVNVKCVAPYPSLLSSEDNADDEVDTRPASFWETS
Protocol Text: Kinase inhibition assay (33P transfer), c-Met
Type: biochemical
Condition Parameters: Table 2, kinase inhibition class; read-out: Met-1
Method: The inhibitor compounds described herein are screened in the following manner. […] Kinases are expressed as either kinase domains or full length constructs fused to glutathione S-transferase (GST) or polyHistidine tagged fusion proteins in either E. colior Baculovirus-High Five expression systems. […] Kinase activity and inhibition are measured essentially by established protocols (Braunwalder et al., 1996). […]
Value Type: IC50

Before answering, review these 6 worked examples.
[[record]]
record_smiles = "Cc1cccc(Nc2ncnc(Nc3ccc(O)cc3)n2)c1"
measured_value = "8.18 to 11.9 µM"

[[record]]
record_smiles = "COc1cc(Nc2ncnc(Nc3ccc(O)cc3Cl)n2)cc(OC)c1OC"
measured_value = "> 11.1 µM"

[[record]]
record_smiles = "COc1cc(Nc2ncnc(-n3cc(C#N)c4ccccc43)n2)cc(OC)c1OC"
measured_value = "5.96 to 8.7 µM"

[[record]]
record_smiles = "COc1ccc(Nc2nc3ccccc3n2-c2ncnc(Nc3cc(OC)c(OC)c(OC)c3)n2)cc1OC"
measured_value = "> 8.5 µM"

[[record]]
record_smiles = "COCCCNc1ncnc(N2CCCc3cc(C)ccc32)n1"
measured_value = "> 14.4 µM"

[[record]]
record_smiles = "COc1cc(Nc2ncnc(-n3c(Nc4ccc(C(C)C)cc4)nc4ccccc43)n2)cc(OC)c1OC"
measured_value = "> 8.8 µM"


Lookup: Value lookup for IC50; key = Cc1ccc2c(c1)CCCN2c1ncnc(Nc2cccc(Cl)c2C)n1
Found: 1.09 to 6.56 µM

Lookup: Value lookup for IC50; key = COc1cc(Nc2ncnc(-c3cccc(Cl)c3)n2)cc(OC)c1OC
Found: > 12.1 µM

Lookup: Value lookup for IC50; key = O=c1[nH]c2ccccc2n1-c1ncnc(Nc2cccc(-c3cnco3)c2)n1
Found: > 12.1 µM
